Test: Oral bioavailability in Beagle dog at 3 mg/kg
Type: ADME, organism-based, Canis lupus familiaris
Conditions: in vivo
recorded-endpoint: bioavailability (%)
I only need the number, in %, no unit after it.

[in] Can you share its bioavailability? I mean this molecule: CC(=O)NCCc1ccccc1-c1ccc([C@H]2CNCC[C@@H]2c2ccn(C)c(=O)c2)c(Cl)c1.Cl
[out] 30

###

Biological target: CYP3A4 (Homo sapiens, UniProt P08684)
Sequence (P08684 whole entry): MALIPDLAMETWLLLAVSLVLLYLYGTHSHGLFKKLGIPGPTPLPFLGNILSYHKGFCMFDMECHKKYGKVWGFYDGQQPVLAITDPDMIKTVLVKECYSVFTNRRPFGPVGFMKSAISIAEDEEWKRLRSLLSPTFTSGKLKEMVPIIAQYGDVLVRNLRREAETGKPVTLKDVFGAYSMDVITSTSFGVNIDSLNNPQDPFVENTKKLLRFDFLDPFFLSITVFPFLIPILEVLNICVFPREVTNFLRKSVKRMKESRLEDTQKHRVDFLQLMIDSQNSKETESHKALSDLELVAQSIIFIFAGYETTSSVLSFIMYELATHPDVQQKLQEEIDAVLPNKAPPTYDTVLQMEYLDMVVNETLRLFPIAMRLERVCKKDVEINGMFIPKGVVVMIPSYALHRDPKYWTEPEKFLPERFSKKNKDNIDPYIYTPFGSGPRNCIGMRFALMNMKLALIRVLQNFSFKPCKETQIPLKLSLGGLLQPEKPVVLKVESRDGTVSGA
Experiment: Reversible inhibition of CYP3A4 using testosterone as substrate assessed as remaining activity at 10 uM
Type: ADME
Conditions: probe testosterone; read-out: Activity
Parameter: activity at 10 µM. Scope: all listed entries.
I only need the number, in %, no unit after it.

Examples from the recorded data:
1) CCC(=O)NCCc1ccccc1-c1ccc([C@H]2CNCC[C@@H]2c2ccn(C)c(=O)c2)c(Cl)c1 = 92
2) CCOC(=O)NCCc1ccccc1-c1ccc([C@H]2CNCC[C@@H]2c2ccn(C)c(=O)c2)c(Cl)c1 = 91
3) CC(=O)NCCc1ccccc1-c1ccc([C@H]2CNCC[C@]2(O)c2ccc(F)c(F)c2)c(C)c1 = 87

[in] Lab note: need activity at 10 µM for COCC(F)(F)COCc1ccc([C@@]2(O)CCNC[C@@H]2c2ccc(-c3ccccc3CCNC(C)=O)cc2C)cc1 on CYP3A4 (Homo sapiens, UniProt P08684), anyone have it?
[out] 76

###

Assay: Half life in Beagle dog at 3 mg/kg, po and 1 mg/kg, iv
Format: ADME, organism-based, Canis lupus familiaris
Details: in vivo
recorded-endpoint: half-life (h)
I only need the number, in h, no unit after it.

[in] Can you share its half-life? I mean this molecule: CC(=O)NCCc1ccccc1-c1ccc([C@H]2CNCC[C@@H]2c2ccn(C)c(=O)c2)c(Cl)c1.Cl
[out] 6.2

###

Test: Clearance in Beagle dog at 3 mg/kg, po and 1 mg/kg, iv
Type: ADME, organism-based, Canis lupus familiaris
Conditions: in vivo
recorded-endpoint: clearance (mL/min/kg)
I only need the number, in mL/min/kg, no unit after it.

[in] Can you share its clearance? I mean this molecule: CC(=O)NCCc1ccccc1-c1ccc([C@H]2CNCC[C@@H]2c2ccn(C)c(=O)c2)c(Cl)c1.Cl
[out] 24

###

Experiment: Volume of distribution at steady state in Beagle dog at 3 mg/kg, po and 1 mg/kg, iv
Format: ADME, organism-based, Canis lupus familiaris
Conditions: in vivo, read-out: Vdss
recorded-endpoint: Vd (L/kg)
I only need the number, in L/kg, no unit after it.

[in] Can you share its Vd? I mean this compound: CC(=O)NCCc1ccccc1-c1ccc([C@H]2CNCC[C@@H]2c2ccn(C)c(=O)c2)c(Cl)c1.Cl
[out] 4.6

###

Target: Renin (Homo sapiens, UniProt P00797)
Sequence (P00797 whole entry): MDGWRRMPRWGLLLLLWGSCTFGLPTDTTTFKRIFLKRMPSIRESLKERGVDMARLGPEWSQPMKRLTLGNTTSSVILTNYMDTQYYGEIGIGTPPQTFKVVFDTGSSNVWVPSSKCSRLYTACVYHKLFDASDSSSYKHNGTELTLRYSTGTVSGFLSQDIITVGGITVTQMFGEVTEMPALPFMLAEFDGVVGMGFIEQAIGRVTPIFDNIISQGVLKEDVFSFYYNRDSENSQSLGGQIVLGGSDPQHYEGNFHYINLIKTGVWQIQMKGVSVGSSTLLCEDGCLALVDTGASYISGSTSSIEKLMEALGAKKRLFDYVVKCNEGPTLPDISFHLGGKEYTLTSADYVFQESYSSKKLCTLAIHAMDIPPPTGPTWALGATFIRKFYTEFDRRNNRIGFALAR
Assay: Inhibition of human recombinant renin using QXL520-Lys-His-Pro-Phe-His-Leu-Val-Ile-His-Lys-(5-FAM) as substrate preincubated for 10 mins prior to substrate addition measure after 1 hr by fluorimetry in the presence of human plasma
Definition: the class of an entry is the range in category 1 (below 4 nM), category 2 (4 nM to below 8 nM), category 3 (8 nM or more) that contains its IC50.

1) CC(=O)NCCc1ccccc1-c1ccc([C@H]2CNCC[C@@H]2c2ccc(F)c(F)c2)c(Cl)c1 = category 2
2) CC(=O)NCCc1ccccc1-c1ccc([C@H]2CNCC[C@]2(O)c2ccc(F)c(F)c2)c(C)c1 = category 2
3) COC(=O)NCCc1ccccc1-c1ccc([C@H]2CNCC[C@@H]2c2ccn(C)c(=O)c2)c(Cl)c1 = category 2
4) CCOC(=O)NCCc1ccccc1-c1ccc([C@H]2CNCC[C@@H]2c2ccn(C)c(=O)c2)c(Cl)c1 = category 3
5) CC(=O)NCCc1ccccc1-c1ccc([C@H]2CNCC[C@@]23OC(=O)c2cc(F)c(F)cc23)c(C)c1 = category 1
6) CC(=O)NCCc1ccccc1-c1ccc([C@H]2CNCC[C@@]23OCc2cc(F)c(F)cc23)c(C)c1 = category 1
7) CC(=O)NCCc1ccccc1-c1ccc([C@H]2CNCC[C@@H]2c2cccnc2)c(Cl)c1 = category 1

We now examine a further compound.
[in] Quick check: band for COCC(=O)NCCc1ccccc1-c1ccc([C@H]2CNCC[C@@H]2c2ccn(C)c(=O)c2)c(Cl)c1
[out] category 3
